// data source = ChEMBL document CHEMBL4819035

Would you kindly list pIC50 for each of these compounds?
- Target Entity: Glycine receptor subunit alpha-1 (Homo sapiens)
- Protocol Notes: Antagonist activity at human glycine receptor subunit alpha-1 assessed as inhibition of glycine-induced current measured at the onset of compound application by patch-clamp assay
Please keep in mind that pIC50 is minus log10 of the molar concentration; only the number is needed.

pIC50 for `COCCOCCOCCOCCOCCOCCOCCOCCOCCOCCOCCOCCC(=O)NCCCCC(=O)Nc1ccc2c(c1)[C@@]13CCN4CC5=CCO[C@H]6CC(=O)N2[C@H]1[C@H]6[C@H]5C[C@H]43` is 6.07

Summary for this compound, `COCCOCCOCCOCCOCCOCCOCCOCCOCCOCCOCCOCCC(=O)NCCCCCCCCCCC(=O)Nc1ccc2c(c1)[C@@]13CCN4CC5=CCO[C@H]6CC(=O)N2[C@H]1[C@H]6[C@H]5C[C@H]43` : pIC50 is 5.24

The reported pIC50 of the compound `O=C(CCOCCOCCOCCOCCOCCOCCOCCOCCOCCOCCOCCOCCC(=O)NCCCCC(=O)Nc1ccc2c(c1)[C@@]13CCN4CC5=CCO[C@H]6CC(=O)N2[C@H]1[C@H]6[C@H]5C[C@H]43)NCCCCC(=O)Nc1ccc2c(c1)[C@@]13CCN4CC5=CCO[C@H]6CC(=O)N2[C@H]1[C@H]6[C@H]5C[C@H]43` was 5.87

----------
- Target Entity: Glycine receptor subunit alpha-1 (Homo sapiens, UniProt P23415)
- Sequence (P23415 whole entry): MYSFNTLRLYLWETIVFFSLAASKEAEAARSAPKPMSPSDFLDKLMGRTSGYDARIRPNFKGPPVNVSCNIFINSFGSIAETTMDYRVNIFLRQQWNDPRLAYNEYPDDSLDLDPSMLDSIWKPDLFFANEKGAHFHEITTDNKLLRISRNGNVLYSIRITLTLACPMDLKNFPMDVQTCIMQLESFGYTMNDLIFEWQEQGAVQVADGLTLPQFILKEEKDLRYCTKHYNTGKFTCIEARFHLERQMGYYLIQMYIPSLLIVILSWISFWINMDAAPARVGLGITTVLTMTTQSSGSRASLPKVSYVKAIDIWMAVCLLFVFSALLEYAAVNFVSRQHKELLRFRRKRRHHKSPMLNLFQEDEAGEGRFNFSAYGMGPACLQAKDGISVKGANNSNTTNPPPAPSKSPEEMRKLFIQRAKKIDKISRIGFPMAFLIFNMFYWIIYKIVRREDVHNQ
- Protocol Notes: Antagonist activity at human glycine receptor subunit alpha-1 expressed in human tsA201 cells assessed as reduction in glycine-induced response incubated for 30 mins by fluorescence-based FLIPR membrane potential blue assay
- Assay type: cell-based
- Settings: read-out: IC50
Lab note: anything with IC50 below 2000 nM is marked rule met; values at 2000 nM or higher are marked rule not met.

Does `O=C(CCCCCCCCCCC(=O)NCC(=O)Nc1ccc2c(c1)[C@@]13CCN4CC5=CCO[C@H]6CC(=O)N2[C@H]1[C@H]6[C@H]5C[C@H]43)NCC(=O)Nc1ccc2c(c1)[C@@]13CCN4CC5=CCO[C@H]6CC(=O)N2[C@H]1[C@H]6[C@H]5C[C@H]43` have IC50 strictly under 2000 nM?
rule not met

Consider `O=C(CCCCCCCC(=O)NCC(=O)Nc1ccc2c(c1)[C@@]13CCN4CC5=CCO[C@H]6CC(=O)N2[C@H]1[C@H]6[C@H]5C[C@H]43)NCC(=O)Nc1ccc2c(c1)[C@@]13CCN4CC5=CCO[C@H]6CC(=O)N2[C@H]1[C@H]6[C@H]5C[C@H]43` . Does its IC50 lie strictly below 2000 nM?
rule not met

Strictly below 2000 nM: is that where IC50 of `O=C(CCCCCCC(=O)NCCCCCCCCCCC(=O)Nc1ccc2c(c1)[C@@]13CCN4CC5=CCO[C@H]6CC(=O)N2[C@H]1[C@H]6[C@H]5C[C@H]43)NCCCCCCCCCCC(=O)Nc1ccc2c(c1)[C@@]13CCN4CC5=CCO[C@H]6CC(=O)N2[C@H]1[C@H]6[C@H]5C[C@H]43` sits?
rule not met

Does this compound meet the criterion IC50 < 2000 nM? `O=C(CCCCCCCCCCCCC(=O)Nc1ccc2c(c1)[C@@]13CCN4CC5=CCO[C@H]6CC(=O)N2[C@H]1[C@H]6[C@H]5C[C@H]43)Nc1ccc2c(c1)[C@@]13CCN4CC5=CCO[C@H]6CC(=O)N2[C@H]1[C@H]6[C@H]5C[C@H]43`
rule met

API: query returns whether the compound falls strictly under 2000 nM in IC50. Query: `O=C(CCCCCCCCCCC(=O)Nc1ccc2c(c1)[C@@]13CCN4CC5=CCO[C@H]6CC(=O)N2[C@H]1[C@H]6[C@H]5C[C@H]43)Nc1ccc2c(c1)[C@@]13CCN4CC5=CCO[C@H]6CC(=O)N2[C@H]1[C@H]6[C@H]5C[C@H]43`
rule met
